peptide exchange yield listing for selected binders.
Molecular target: T1, HLA-A*02:01 (human)
T1 construct: captured on streptavidin plates; also called peptide-receptive MHC molecules
Test: UV peptide exchange ELISA (anti-b2m); yield grade: + >10%, ++ >20%, +++ >50, ++++ >75%

Asked: // peptide exchange yield lookup, key: VLYEMLYGL
Given back: > 75%

Asked: // peptide exchange yield lookup, key: NLPNTNSILGV
Given back: 50 to 75%

Asked: // peptide exchange yield lookup, key: KVPEIEVTV
Given back: > 75%

Asked: // peptide exchange yield lookup, key: YLDTFALKL
Given back: > 75%

Asked: // peptide exchange yield lookup, key: SVNGFISTL
Given back: 20 to 50%

Asked: // peptide exchange yield lookup, key: SLVAILHLL
Given back: 50 to 75%

Asked: // peptide exchange yield lookup, key: NLPSELPQL
Given back: 50 to 75%

Asked: // peptide exchange yield lookup, key: ILDEEKFNV
Given back: 50 to 75%
